B1: FBXO34 (parent)
chain: ASSVESTLPVLEASSWKKQVSHDF

variants of: B1; assay: protein stability index of a GFP-peptide fusion (GPS, HEK-293T) (PSI 1-6); higher = more stable; conditions: c terminus: a fixed tail appended;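 note: lentivirally expressed fusions sorted by FACS into six bins by GFP to DsRed ratio, PSI derived from sequencing read proportions per bin multiplied by bin number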
Below: a set of entries, each annotated with reported protein stability index.
Answer with a number only.

Here is how some variants turned out for protein stability index.
residue-sequence: ASSVESTLPVLEASSWKKQVSGDF [H22G]
protein stability index: 4.47
//
residue-sequence: ASSGESTLPVLEASSWKKQVSHDF [V4G]
protein stability index: 3.15
//
residue-sequence: ASSVESTLPVAEASSWKKQVSHDF [L11A]
protein stability index: 3.52
//
residue-sequence: ASSVESTLPVLEASSWKKQRSHDF [V20R]
protein stability index: 4.22
//
residue-sequence: ASSVELTLPVLEASSWKKQVSHDF [S6L]
protein stability index: 3.18

Sample ASSVHSTLPVLEASSWKKQVSHDF [E5H] ; protein stability index observed: 2.4

Sample ASSVESPLPVLEASSWKKQVSHDF [T7P] ; protein stability index observed: 2.31

Sample ASSVESTLPVLEASSWKWQVSHDF [K18W] ; protein stability index observed: 2.58

Sample ASSVESTLPVLEASSWKRQVSHDF [K18R] ; protein stability index observed: 3.15

Sample ASSVESTLPVLFASSWKKQVSHDF [E12F] ; protein stability index observed: 2.25

Sample ASSVESTLPHLEASSWKKQVSHDF [V10H] ; protein stability index observed: 2.5

Sample ARSVESTLPVLEASSWKKQVSHDF [S2R] ; protein stability index observed: 2.8

Sample ASSMESTLPVLEASSWKKQVSHDF [V4M] ; protein stability index observed: 2.51
